Test system: Acid phosphatase
Assay: Lysosomal free acid phosphatase activity, PMNs
Type: cell-based
Settings: 5 μmoles
Assay Readout: inhibition of free acid phosphatase activity in PMNs (%)
The reply should contain only the number, in %.

[[record]]
structure_as_smiles = "C[N+]1([BH2-]C#N)CCOCC1"
result_unit = "%"
data_value = 50

[[record]]
structure_as_smiles = "C[N+](C)(C)[BH2-]C#N"
result_unit = "%"
data_value = 65

[[record]]
structure_as_smiles = "C[N+](C)(C)[BH2-]C(=O)O"
result_unit = "%"
data_value = 50


Prompt line: Please list inhibition of free acid phosphatase activity in PMNs recorded for the compound [BH3-][N+](C)(C)C
Response line: 43
